assay_info: anti-His antibody binders, primary screen, artefact control for SMM control protein annotation, biochemical, small-molecule microarray, 635 nm fluorescence (AID 1128);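 further: score merges feature fluorescence with signal-to-noise for each printed compound spot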
details: anti-His Alexa647 antibody binding, higher = more signal
Below, each entry is listed alongside its reported composite z-score.
outcome_measure: composite z-score

compound: Cc1nc2cc(Br)ccc2c(=O)o1
outcome_measure: composite z-score
experimental_value: 0.302
//
compound: CC(C)(C)OC(=O)CC[C@]1(C(=O)N2CCOCC2)N=C(c2ccc(OCCCO)cc2)O[C@H]1c1ccccc1N=[N+]=[N-]
outcome_measure: composite z-score
experimental_value: 2.82
//
compound: C=CCN1C(=O)[C@@]2(CC=C)N=C(c3ccc(OCCCO)cc3)O[C@H]2c2ccccc21
outcome_measure: composite z-score
experimental_value: 2.12
//
compound: O=C1OCCC/C=C\[C@H]2OC34C=CCN(Cc5ccccc5)C(=O)[C@H]3N(CCCO)C(=O)[C@@H]4C12 (some centres undefined)
outcome_measure: composite z-score
experimental_value: -0.14
//
compound: COC(=O)C(CC#Cc1ccc2c(c1)[C@]1(C(=O)N2)[C@H](c2ccc(OCCO)cc2)N2[C@H](c3ccccc3)[C@H](c3ccccc3)OC(=O)[C@H]2[C@@H]1C(=O)N1CCc2cc(OC)c(OC)cc2C1)C(=O)OC
outcome_measure: composite z-score
experimental_value: 0.857
//
compound: C=CCOC(=O)[C@H]1[C@@H]2C(=O)O[C@@H](c3ccccc3)[C@@H](c3ccccc3)N2[C@@H](c2ccc(OCCOC(=O)[C@H]3C[C@H]4C(=O)N[C@@H](CCCCN(C)C)C(=O)N4[C@H]3c3ccc(O)cc3)cc2)[C@]12C(=O)Nc1ccc(I)cc12
outcome_measure: composite z-score
experimental_value: 2.49
//
compound: CC1CC/C=C\[C@H]2OC34C=CCN(C(C)(C)C)C(=O)[C@H]3N(CCO)C(=O)[C@@H]4C2C(=O)O1 (some centres undefined)
outcome_measure: composite z-score
experimental_value: -0.931
//
compound: CCCCCN1CC=CC23O[C@@H]4/C=C\CCC(C)OC(=O)C4[C@H]2C(=O)N(C(C)CO)[C@@H]3C1=O (some centres undefined)
outcome_measure: composite z-score
experimental_value: -0.361
//
compound: COCCOC(=O)N1C(=O)[C@@]2(c3ccccc31)[C@H](c1ccc(O)cc1)N1[C@H](c3ccccc3)[C@H](c3ccccc3)OC(=O)[C@H]1[C@@H]2C(=O)Nc1nc2ccccc2s1
outcome_measure: composite z-score
experimental_value: 1.97
//
compound: CCOC(=O)C1=CC[C@@H](c2ccccc2)N(S(=O)(=O)c2ccc(C)cc2)[C@H]1c1ccccc1C
outcome_measure: composite z-score
experimental_value: 0.109
//
compound: O[C@@H](Cc1ccccc1)[C@H]1C2C=CCCC=C2CN1Cc1cccc(Cl)c1 (some centres undefined)
outcome_measure: composite z-score
experimental_value: 1.21
//
compound: COc1cc2c(cc1O)C(c1cccs1)N(C)CC2 (centres undefined)
outcome_measure: composite z-score
experimental_value: -1
//
compound: C=CCC(OC(C)=O)[C@@H]1[C@@H](N(Cc2ccc(-c3ccccc3)cc2)C(=O)c2cccc3ccccc23)c2cc(OCCCO)ccc2N1C(=O)c1ccc(-c2ccccc2)cc1 (some centres undefined)
outcome_measure: composite z-score
experimental_value: -0.722
//
compound: COC(=O)[C@@]1(CCS(=O)(=O)c2ccccc2)N=C(c2ccc(OCCCO)cc2)O[C@H]1c1ccccc1CN=[N+]=[N-]
outcome_measure: composite z-score
experimental_value: 2.29
